target: LONP1 (NM_004793.4) (Homo sapiens (Human), UniProt P36776)
Sequence (P36776 68-959): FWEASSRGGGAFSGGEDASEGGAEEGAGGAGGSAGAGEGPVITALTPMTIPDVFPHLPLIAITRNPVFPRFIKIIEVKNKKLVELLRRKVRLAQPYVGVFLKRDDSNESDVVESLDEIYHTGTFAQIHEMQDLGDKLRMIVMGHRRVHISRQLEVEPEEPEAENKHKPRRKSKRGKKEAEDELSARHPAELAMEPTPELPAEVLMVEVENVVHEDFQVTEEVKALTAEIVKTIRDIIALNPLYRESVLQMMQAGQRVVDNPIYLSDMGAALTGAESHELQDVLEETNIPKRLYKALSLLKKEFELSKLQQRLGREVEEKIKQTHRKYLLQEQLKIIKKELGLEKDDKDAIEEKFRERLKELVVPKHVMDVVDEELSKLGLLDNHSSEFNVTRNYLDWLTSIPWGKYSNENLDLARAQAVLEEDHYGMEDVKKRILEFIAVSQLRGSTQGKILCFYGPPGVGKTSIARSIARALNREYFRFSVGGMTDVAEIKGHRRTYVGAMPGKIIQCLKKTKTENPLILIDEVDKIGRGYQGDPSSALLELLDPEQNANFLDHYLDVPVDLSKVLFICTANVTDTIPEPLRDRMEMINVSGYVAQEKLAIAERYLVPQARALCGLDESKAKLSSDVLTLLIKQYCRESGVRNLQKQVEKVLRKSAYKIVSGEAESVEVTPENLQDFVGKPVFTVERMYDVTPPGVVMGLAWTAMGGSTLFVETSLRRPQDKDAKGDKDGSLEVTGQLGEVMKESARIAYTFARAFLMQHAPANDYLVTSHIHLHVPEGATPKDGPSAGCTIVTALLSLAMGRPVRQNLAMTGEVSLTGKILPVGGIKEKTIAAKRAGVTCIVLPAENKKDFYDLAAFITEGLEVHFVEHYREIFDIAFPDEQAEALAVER
Entries annotated with measured IC50

Examples with their reported IC50 follow.
[
  {
    "Input Smiles": "O=C(N[C@H](CC(=O)N1CCOCC1)C(=O)N[C@@H](CCCc1ccccc1)B(O)O)O[C@H]1CCOC1",
    "Observation Type": "IC50",
    "Reported": "< 0.05 µM"
  },
  {
    "Input Smiles": "CCCC[C@H](NC(=O)[C@@H](CC(=O)N1CCOCC1)NC(=O)c1cnccn1)B(O)O",
    "Observation Type": "IC50",
    "Reported": "0.05 to 0.5 µM"
  },
  {
    "Input Smiles": "O=C(N[C@@H](CCCc1ccccc1)B(O)O)[C@H](CC(=O)N1CCOCC1)NS(=O)(=O)c1ccccc1",
    "Observation Type": "IC50",
    "Reported": "< 0.05 µM"
  }
]

**Query** For LONP1 (NM_004793.4) (Homo sapiens (Human), UniProt P36776), provide IC50 of `O=C(N[C@H](CC(=O)N1CCOCC1)C(=O)N[C@@H](CCc1ccccc1)B(O)O)c1cnccn1` please.
**Result** 0.05 to 0.5 µM

**Query** For LONP1 (NM_004793.4) (Homo sapiens (Human), UniProt P36776), provide IC50 of `O=C(N[C@H](CC(=O)N1CCOCC1)C(=O)N[C@H]1CCOB1O)c1cnccn1` please.
**Result** > 5 µM

**Query** For LONP1 (NM_004793.4) (Homo sapiens (Human), UniProt P36776), provide IC50 of `O=C(N[C@H](CC(=O)N1CCOCC1)C(=O)N[C@@H](CCCc1ccccc1)B(O)O)O[C@@H]1CCOC1` please.
**Result** < 0.05 µM

**Query** For LONP1 (NM_004793.4) (Homo sapiens (Human), UniProt P36776), provide IC50 of `Cc1nc(C)c(C(=O)N[C@H](CC(=O)N2CCOCC2)C(=O)N[C@@H](CC(C)C)B(O)O)o1` please.
**Result** 0.05 to 0.5 µM

**Query** For LONP1 (NM_004793.4) (Homo sapiens (Human), UniProt P36776), provide IC50 of `O=C(N[C@@H](CCCc1ccccc1)B(O)O)[C@@H](CC(=O)N1CCOCC1)NS(=O)(=O)c1cc(Cl)ccc1Cl` please.
**Result** < 0.05 µM

**Query** For LONP1 (NM_004793.4) (Homo sapiens (Human), UniProt P36776), provide IC50 of `CC(C)(C)OC(=O)N(CCc1ccccc1)[C@H](CC(=O)N1CCOCC1)C(=O)N[C@@H](CCCc1ccccc1)B(O)O` please.
**Result** 0.5 to 5 µM

**Query** For LONP1 (NM_004793.4) (Homo sapiens (Human), UniProt P36776), provide IC50 of `O=C(N[C@@H](CCCc1ccccc1)B(O)O)[C@@H](CC(=O)N1CCOCC1)NC(=O)N1CC[C@@H](O)C1` please.
**Result** 0.05 to 0.5 µM

**Query** For LONP1 (NM_004793.4) (Homo sapiens (Human), UniProt P36776), provide IC50 of `CC(C)C[C@H](NC(=O)[C@@H](CC(=O)N1CCOCC1)NC(=O)c1cnccn1)B(O)O` please.
**Result** 0.05 to 0.5 µM

Recorded values, source patent US20250059214A1.
